Hello, the source for this data is the supplement of paper PMC10567573, in case you need it.

B1: CDC14A (parent)
chain: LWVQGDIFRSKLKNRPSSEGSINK

variants of: B1; experiment: protein stability index of a GFP-peptide fusion (GPS, HEK-293T) (PSI 1-6); higher = more stable; conditions: c terminus: a fixed tail appended;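 note: lentivirally expressed fusions sorted by FACS into six bins by GFP to DsRed ratio, PSI derived from sequencing read proportions per bin multiplied by bin number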

{"mutant.code": "G20D", "protein stability index": 2.64}
{"mutant.code": "F8A", "protein stability index": 3.43}
{"mutant.code": "K24H", "protein stability index": 2.06}
{"mutant.code": "K11A", "protein stability index": 2.26}
{"mutant.code": "N14T", "protein stability index": 1.88}
{"mutant.code": "F8T", "protein stability index": 3.3}
{"mutant.code": "G5T", "protein stability index": 2.29}
{"mutant.code": "W2C", "protein stability index": 3.8}
{"mutant.code": "L1F", "protein stability index": 1.75}
{"mutant.code": "Q4A", "protein stability index": 1.9}
{"mutant.code": "K24T", "protein stability index": 2.83}
{"mutant.code": "V3M", "protein stability index": 2.73}
{"mutant.code": "F8P", "protein stability index": 4.1}
{"mutant.code": "G5V", "protein stability index": 1.53}
{"mutant.code": "R9V", "protein stability index": 2.65}
{"mutant.code": "N23C", "protein stability index": 2.17}
{"mutant.code": "G5H", "protein stability index": 2.52}
{"mutant.code": "S10H", "protein stability index": 2.48}
{"mutant.code": "R9S", "protein stability index": 2.6}
{"mutant.code": "S21H", "protein stability index": 2.41}
{"mutant.code": "K13M", "protein stability index": 1.93}
{"mutant.code": "N23F", "protein stability index": 1.45}
